System: U2OS
Test: cell viability relative to DMSO; higher = less toxic
Conditions: 72 h; 1000 nM
Items are presented alongside their recorded cell viability.
measurement_type: cell viability (%)

smi: CN(C)C(=N)NCCC[C@H](N)C(=O)O
measurement_type: cell viability
uom: %
meas_value: 93.5
//
smi: CN(C)C(=O)Oc1ccc[n+](C)c1
measurement_type: cell viability
uom: %
meas_value: 98.6
//
smi: O=c1cc(N2CCN(c3cccc(C(F)(F)F)c3)CC2)[nH]c(=O)n1C1CCCCC1
measurement_type: cell viability
uom: %
meas_value: 97.9
//
smi: COc1cc(N2CCC(N(C)C)CC2)ccc1Nc1ncc(Cl)c(Nc2ccccc2P(C)(C)=O)n1
measurement_type: cell viability
uom: %
meas_value: 83.4
//
smi: Cc1ccc(O)c([C@H](CCN(C(C)C)C(C)C)c2ccccc2)c1
measurement_type: cell viability
uom: %
meas_value: 98.7
